Source listed as patent US20130274254A1.

Would you mind telling me the reported IC50 at 5 min of each entry?
measured-on: CYP3A4 (Homo sapiens, UniProt P08684)
Sequence (P08684 2-503): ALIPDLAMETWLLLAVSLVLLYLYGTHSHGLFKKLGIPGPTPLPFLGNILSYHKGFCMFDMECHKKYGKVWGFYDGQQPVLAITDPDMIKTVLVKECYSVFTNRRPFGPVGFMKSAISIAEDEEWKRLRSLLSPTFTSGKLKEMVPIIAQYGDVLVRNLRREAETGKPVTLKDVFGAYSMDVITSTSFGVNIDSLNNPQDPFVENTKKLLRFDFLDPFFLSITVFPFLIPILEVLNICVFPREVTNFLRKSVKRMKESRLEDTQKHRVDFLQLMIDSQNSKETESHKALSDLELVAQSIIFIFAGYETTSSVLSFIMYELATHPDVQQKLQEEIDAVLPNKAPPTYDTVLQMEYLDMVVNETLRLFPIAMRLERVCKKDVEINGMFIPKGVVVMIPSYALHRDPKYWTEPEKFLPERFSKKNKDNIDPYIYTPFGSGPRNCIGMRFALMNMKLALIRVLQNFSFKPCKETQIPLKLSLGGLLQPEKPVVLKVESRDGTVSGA
test-method-notes: CYP3A inhibition assay, midazolam 1'-hydroxylase activity in pooled human hepatic microsomal fraction
Type: biochemical
recorded-conditions: pooled human liver microsomes, pH 7.4, probe midazolam (1'-hydroxylation), 0.25 mg/mL microsomal protein
Give bare numbers, in µM.

Here is how some compounds turned out for IC50 at 5 min.
# structure-as-smiles, unit-label, IC50 at 5 min
measured = [
    ("CN1CCN(C(=O)N[C@@H](CCN2CCOCC2)C(=O)N[C@H](CC[C@H](Cc2ccccc2)NC(=O)OCc2cncs2)Cc2ccccc2)CC1", "µM", 0.41),
    ("CC(=O)NCC[C@H](NC(=O)N(C)C(C)C)C(=O)N[C@H](CC[C@H](Cc1ccccc1)NC(=O)OCc1cncs1)Cc1ccccc1", "µM", 0.15),
    ("CN(Cc1ccco1)C(=O)N[C@@H](CCN1CCOCC1)C(=O)N[C@H](CC[C@H](Cc1ccccc1)NC(=O)OCc1cncs1)Cc1ccccc1", "µM", 0.13),
    ("CN(Cc1ccccc1)C(=O)N[C@@H](CCN1CCOCC1)C(=O)N[C@H](CC[C@H](Cc1ccccc1)NC(=O)OCc1cncs1)Cc1ccccc1", "µM", 0.13),
    ("CC(C)c1nc(CN(C)C(=O)N[C@H](C(=O)N[C@H](CC[C@H](Cc2ccccc2)NC(=O)OCc2cccnc2)Cc2ccccc2)C(C)C)cs1", "µM", 0.16),
    ("O=C(NC1CCCCC1)N[C@@H](CCN1CCOCC1)C(=O)N[C@H](CC[C@H](Cc1ccccc1)NC(=O)OCc1cncs1)Cc1ccccc1", "µM", 0.18),
]

Respectfully, I request IC50 at 5 min for each entry included below.
1. COCCN(C)C(=O)N[C@@H](CCN1CCOCC1)C(=O)N[C@H](CC[C@H](Cc1ccccc1)NC(=O)OCc1cncs1)Cc1ccccc1
2. CN(C)C(=O)N[C@@H](CCN1CCOCC1)C(=O)N[C@H](CC[C@H](Cc1ccccc1)NC(=O)OCc1cncs1)Cc1ccccc1

Ans.
1: 0.26; 2: 0.15

Respectfully, I request IC50 at 5 min for each entry included below.
1. Cc1ncsc1CCC(=O)N[C@H](CC[C@H](Cc1ccccc1)NC(=O)[C@@H](NC(=O)N(C)Cc1csc(C(C)C)n1)C(C)C)Cc1ccccc1
2. O=C(N[C@H](CC[C@H](Cc1ccccc1)NC(=O)[C@H](CCN1CCOCC1)NC(=O)N1CCCC1)Cc1ccccc1)OCc1cncs1
3. CN(C(=O)N[C@@H](CCN1CCOCC1)C(=O)N[C@H](CC[C@H](Cc1ccccc1)NC(=O)OCc1cncs1)Cc1ccccc1)C1CCCCC1

Ans.
1: 0.19; 2: 0.22; 3: 0.18

###

Would you mind telling me the reported IC50 at 5 min of each entry?
measured-on: UniProt:P08684
test-method-notes: CYP3A inhibition assay, midazolam 1'-hydroxylase activity in pooled human hepatic microsomal fraction
Type: biochemical
recorded-conditions: pooled human liver microsomes, pH 7.4, probe midazolam (1'-hydroxylation), 0.25 mg/mL microsomal protein

# structure-as-smiles, IC50 at 5 min
records = [
    ("CC(C)[C@H](NC(=O)N(C)C(C)C)C(=O)N[C@H](CC[C@H](Cc1ccccc1)NC(=O)OCc1cncs1)Cc1ccccc1", "< 0.1 µM"),
    ("CN(Cc1cccnc1)C(=O)N[C@@H](CCN1CCOCC1)C(=O)N[C@H](CC[C@H](Cc1ccccc1)NC(=O)OCc1cncs1)Cc1ccccc1", "< 0.1 µM"),
]

Here's the next entry for you.
Qu. Report IC50 at 5 min for CC(=O)NCC[C@H](NC(=O)N1CCCCC1)C(=O)N[C@@H](CC[C@@H](Cc1ccccc1)NC(=O)OCc1cncs1)Cc1ccccc1 tested on UniProt:P08684.
Ans. < 0.1 µM
